experiment: 384-well plate pilot, post-Golgi transport modulator project, inhibition of yeast transport mutant growth (AID 636); settings: absorbance 615 nm, about 18 h, hits give high values; note: test concentration not given here

COMPOUND | inhibition, %
CC1CC(C)CN(c2ncnc3c2cnn3-c2ccc(Cl)cc2)C1 (stereo unspecified) | 0.53
COc1ccccc1N1CCN(C(=O)CSc2nc3ncnc(N)c3[nH]2)CC1 | -4.29
CCOc1ccc(NC(=O)CC2NCCNC2=O)cc1 (stereo unspecified) | -5.95
CC(C)CC(c1nnnn1C(C)(C)C)N1CCN(C2CCCC2)CC1 (stereo unspecified) | -7.33
Cc1noc(C)c1CSc1nnc2scc(-c3ccc(Cl)cc3)n12 | -8.63
CN(C)CCN(Cc1ccccc1)c1ccccn1 | 3.38
